System: grafted B16 F0 murine melanoma tumour
PROTOCOL SUMMARY: Biodistribution of the ^125I-labelled molecules in the melanoma-bearing mouse (autoradiography of whole-body sections)
CONDITIONS USED: 72 H after i.v. administration, ^125I-labelled compound
Structures can show the parent of a compound that is named as a salt.
OUTCOME MEASURE: Concentration of radioactivity, uvea (pigmented tissues of the eye), Mean (% ID/g)
Answer format: numeric, % ID/g implied, no suffix.

// worked examples, Concentration of radioactivity, uvea (pigmented tissues of the eye), Mean included
// Concentration of radioactivity, uvea (pigmented tissues of the eye), Mean lookup, compound = CCN(CC)CCNC(=O)c1ccc2cc(I)ccc2c1 [compound 3, hydrochloride] , result: 7.84

// Concentration of radioactivity, uvea (pigmented tissues of the eye), Mean lookup, compound = CCN(CC)CCNC(=O)c1cc2cc(I)ccc2[nH]1 [compound 10, hydrochloride] , result: 5.86

// Concentration of radioactivity, uvea (pigmented tissues of the eye), Mean lookup, compound = `CCN(CC)CCNC(=O)c1nc2ccc(I)cc2[nH]1.Cl.Cl` , result: 7.26

// Concentration of radioactivity, uvea (pigmented tissues of the eye), Mean lookup, compound = `CCN(CC)CCNC(=O)c1cc2c(I)cccc2s1.Cl` , result: 9.22

// Concentration of radioactivity, uvea (pigmented tissues of the eye), Mean lookup, compound = CCN(CC)CCNC(=O)c1nc2ccccn2c1I [compound 16, dihydrochloride] , result: 2.41

---
// Concentration of radioactivity, uvea (pigmented tissues of the eye), Mean lookup, compound = CCN(CC)CCNC(=O)c1ccc(I)nc1 [compound 7, dihydrochloride] , result: 2.54

// Concentration of radioactivity, uvea (pigmented tissues of the eye), Mean lookup, compound = `CCN(CC)CCNC(=O)c1ccc2cc(I)ccc2n1.Cl.Cl` , result: 18.30

----------
Tested on: grafted B16 F0 murine melanoma tumour
PROTOCOL SUMMARY: Biodistribution of the ^125I-labelled molecules in the melanoma-bearing mouse (autoradiography of whole-body sections)
CONDITIONS USED: 1 H after i.v. administration, ^125I-labelled compound
Counter-ions that a name gives are not always drawn.
Concentration of radioactivity, muscle (skeletal muscle), Mean for assorted molecules
Answer format: numeric, % ID/g implied, no suffix.

// worked examples, Concentration of radioactivity, muscle (skeletal muscle), Mean included
// Concentration of radioactivity, muscle (skeletal muscle), Mean lookup, molecule = CCN(CC)CCNC(=O)c1nc2ccccn2c1I [compound 16, dihydrochloride] , result: 1.10

// Concentration of radioactivity, muscle (skeletal muscle), Mean lookup, molecule = `CCN(CC)CCNC(=O)c1ccc2cc(I)ccc2n1.Cl.Cl` , result: 1.79

// Concentration of radioactivity, muscle (skeletal muscle), Mean lookup, molecule = CCN(CC)CCNC(=O)c1ccc(I)nc1 [compound 7, dihydrochloride] , result: 1.48

// Concentration of radioactivity, muscle (skeletal muscle), Mean lookup, molecule = `CCN(CC)CCNC(=O)c1cc2c(I)cccc2s1.Cl` , result: 0.77

// Concentration of radioactivity, muscle (skeletal muscle), Mean lookup, molecule = CCN(CC)CCNC(=O)c1cc2cc(I)ccc2[nH]1 [compound 10, hydrochloride] , result: 1.50

// Concentration of radioactivity, muscle (skeletal muscle), Mean lookup, molecule = CCN(CC)CCNC(=O)c1ccc2cc(I)ccc2c1 [compound 3, hydrochloride] , result: 1.92

Then there is this molecule:
// Concentration of radioactivity, muscle (skeletal muscle), Mean lookup, molecule = `CCN(CC)CCNC(=O)c1nc2ccc(I)cc2[nH]1.Cl.Cl` , result: 0.55

Measured values drawn from patent US20100061928A1 for this set.
